# assay procedure: Pharmacokinetics of plasma AαC and its metabolites after oral gavage of AαC
# Type: in vivo, mice (C57BL/6 background; WT, LCN, IECN)
# assay conditions: male, C57BL/6, mouse, plasma, po, 13.6 mg/kg, AUC0-24h, WT mice, AαC 13.6 mg/kg oral gavage, mean ± S.D. n=5
measured quantity: AUC(0-t) (ng·h/mL)
Note: unit ng·h/mL is implicit; provide only the numeric part.

What value of measured AUC(0-t) is listed for Nc1ccc2c(n1)[nH]c1ccccc12 [AαC, 2-Amino-9H-pyrido[2,3-b]indole] ?
57.6

====

# assay procedure: Pharmacokinetics of plasma AαC and its metabolites after oral gavage of AαC
# Type: in vivo, mice (C57BL/6 background; WT, LCN, IECN)
# assay conditions: male, C57BL/6, mouse, plasma, po, 13.6 mg/kg, t1/2, WT mice, AαC 13.6 mg/kg oral gavage, mean ± S.D. n=5
measured quantity: half-life (h)
Numbers only; they are read as h.

Returns the measured half-life for the input compound. Input: Nc1ccc2c(n1)[nH]c1ccccc12 [AαC, 2-Amino-9H-pyrido[2,3-b]indole]
3

====

# assay procedure: Pharmacokinetics of plasma AαC and its metabolites after oral gavage of AαC
# Type: in vivo, mice (C57BL/6 background; WT, LCN, IECN)
# assay conditions: male, C57BL/6, mouse, plasma, po, 1.36 mg/kg, t1/2, LCN mice, AαC 1.36 mg/kg oral gavage, mean ± S.D. n=5
measured quantity: half-life (h)
Number only, in h; omit the unit.

Look up half-life: Nc1ccc2c(n1)[nH]c1ccccc12 [AαC, 2-Amino-9H-pyrido[2,3-b]indole]
1.4

====

# assay procedure: Pharmacokinetics of plasma AαC and its metabolites after oral gavage of AαC
# Assay type: in vivo, mice (C57BL/6 background; WT, LCN, IECN)
# assay conditions: male, C57BL/6, mouse, plasma, po, 13.6 mg/kg, Cmax, IECN mice, AαC 13.6 mg/kg oral gavage, mean ± S.D. n=5
measured quantity: Cmax (ng/mL)
Hi! Could you send only the number? It should be in ng/mL, unit omitted.

Consider the compound shown here: Nc1ccc2c(n1)[nH]c1ccccc12 [AαC, 2-Amino-9H-pyrido[2,3-b]indole] What is its recorded Cmax?
25.1

====

# assay procedure: Pharmacokinetics of plasma AαC and its metabolites after oral gavage of AαC
# Assay type: in vivo, mice (C57BL/6 background; WT, LCN, IECN)
# assay conditions: male, C57BL/6, mouse, plasma, po, 1.36 mg/kg, AUC0-6h, WT mice, AαC 1.36 mg/kg oral gavage, mean ± S.D. n=5
measured quantity: AUC(0-t) (ng·h/mL)
Kindly provide the numeric value in ng·h/mL only, without the unit symbol.

Returns the measured AUC(0-t) for the input molecule. Input: Nc1ccc2c(n1)[nH]c1ccccc12 [AαC, 2-Amino-9H-pyrido[2,3-b]indole]
2.5

====

# assay procedure: Pharmacokinetics of plasma AαC and its metabolites after oral gavage of AαC
# Format: in vivo, mice (C57BL/6 background; WT, LCN, IECN)
# assay conditions: male, C57BL/6, mouse, plasma, po, 13.6 mg/kg, AUC0-24h, IECN mice, AαC 13.6 mg/kg oral gavage, mean ± S.D. n=5
measured quantity: AUC(0-t) (ng·h/mL)
Only the number, expressed in ng·h/mL, is required.

Reported AUC(0-t), compound Nc1ccc2c(n1)[nH]c1ccccc12 [AαC, 2-Amino-9H-pyrido[2,3-b]indole] : ____
68.4

====

# assay procedure: Pharmacokinetics of plasma AαC and its metabolites after oral gavage of AαC
# Assay type: in vivo, mice (C57BL/6 background; WT, LCN, IECN)
# assay conditions: male, C57BL/6, mouse, plasma, po, 13.6 mg/kg, Cmax, LCN mice, AαC 13.6 mg/kg oral gavage, mean ± S.D. n=5
measured quantity: Cmax (ng/mL)
The figure you give is taken to be in ng/mL; do not add the unit.

// query Cmax value for entry Nc1ccc2c(n1)[nH]c1ccccc12 [AαC, 2-Amino-9H-pyrido[2,3-b]indole]
272

====

# assay procedure: Pharmacokinetics of plasma AαC and its metabolites after oral gavage of AαC
# Type: in vivo, mice (C57BL/6 background; WT, LCN, IECN)
# assay conditions: male, C57BL/6, mouse, plasma, po, 1.36 mg/kg, Cmax, LCN mice, AαC 1.36 mg/kg oral gavage, mean ± S.D. n=5
measured quantity: Cmax (µg/mL)
Lab book: enter the figure in µg/mL, no units written.

Please give the measured Cmax for this compound: Nc1ccc2c(n1)[nH]c1ccccc12 [AαC, 2-Amino-9H-pyrido[2,3-b]indole]
0.0218

====

# assay procedure: Pharmacokinetics of plasma AαC and its metabolites after oral gavage of AαC
# Assay type: in vivo, mice (C57BL/6 background; WT, LCN, IECN)
# assay conditions: male, C57BL/6, mouse, plasma, po, 1.36 mg/kg, Cmax, WT mice, AαC 1.36 mg/kg oral gavage, mean ± S.D. n=5
measured quantity: Cmax (ng/mL)
Provide only the numeric value, understood in ng/mL.

If you can, please state the reported Cmax value of Nc1ccc2c(n1)[nH]c1ccccc12 [AαC, 2-Amino-9H-pyrido[2,3-b]indole] .
1.4

====

# assay procedure: Pharmacokinetics of plasma AαC and its metabolites after oral gavage of AαC
# Type: in vivo, mice (C57BL/6 background; WT, LCN, IECN)
# assay conditions: male, C57BL/6, mouse, plasma, po, 1.36 mg/kg, AUC0-6h, LCN mice, AαC 1.36 mg/kg oral gavage, mean ± S.D. n=5
measured quantity: AUC(0-t) (ng·h/mL)
Record the value in ng·h/mL, omitting the unit from your answer.

// query AUC(0-t) value for entry Nc1ccc2c(n1)[nH]c1ccccc12 [AαC, 2-Amino-9H-pyrido[2,3-b]indole]
45.2

====

# assay procedure: Pharmacokinetics of plasma AαC and its metabolites after oral gavage of AαC
# Assay type: in vivo, mice (C57BL/6 background; WT, LCN, IECN)
# assay conditions: male, C57BL/6, mouse, plasma, po, 13.6 mg/kg, AUC0-24h, LCN mice, AαC 13.6 mg/kg oral gavage, mean ± S.D. n=5
measured quantity: AUC(0-t) (ng·h/mL)
Numbers only here, please. The scale is ng·h/mL.

May I ask what AUC(0-t) has been recorded for Nc1ccc2c(n1)[nH]c1ccccc12 [AαC, 2-Amino-9H-pyrido[2,3-b]indole] ?
1360

====

# assay procedure: Pharmacokinetics of plasma AαC and its metabolites after oral gavage of AαC
# Format: in vivo, mice (C57BL/6 background; WT, LCN, IECN)
# assay conditions: male, C57BL/6, mouse, plasma, po, 13.6 mg/kg, t1/2, IECN mice, AαC 13.6 mg/kg oral gavage, mean ± S.D. n=5
measured quantity: half-life (h)
Express your answer in h, writing the number without its unit.

Report half-life for Nc1ccc2c(n1)[nH]c1ccccc12 [AαC, 2-Amino-9H-pyrido[2,3-b]indole] please.
3.9
